# ASSAY_TEXT: Stability investigation of crystal forms A, B, C, D and the amorphous form of the compound of formula (1) (related substances by HPLC, moisture, XRD, DSC)
# Type: physicochemical
# STUDY_CONDITIONS: Avoid light for 18 days
READOUT_TYPE: Total related % (%)

Guide cases for Total related %, answers given:
>>> test_value("C[C@H]1CCN1c1nc(N2C[C@@H]3[C@@H](CC(=O)O)[C@@H]3C2)c2c(n1)C(F)(F)CC2 [Crystal form A]")
0.19
>>> test_value("C[C@H]1CCN1c1nc(N2C[C@@H]3[C@@H](CC(=O)O)[C@@H]3C2)c2c(n1)C(F)(F)CC2 [Crystal form C]")
1.25
>>> test_value("C[C@H]1CCN1c1nc(N2C[C@@H]3[C@@H](CC(=O)O)[C@@H]3C2)c2c(n1)C(F)(F)CC2 [Crystal form D]")
0.38

(P) C[C@H]1CCN1c1nc(N2C[C@@H]3[C@@H](CC(=O)O)[C@@H]3C2)c2c(n1)C(F)(F)CC2 [Crystal form B]
(Q) C[C@H]1CCN1c1nc(N2C[C@@H]3[C@@H](CC(=O)O)[C@@H]3C2)c2c(n1)C(F)(F)CC2 [Amorphous form]
Ask: Between the entries labeled P and Q , whose measured Total related % is lower? Bench note: the answer is the label of the chosen record.
Result: P
(P: 0.07%, Q: 0.42%)
